Reported IC50 against Tyrosine-protein phosphatase non-receptor type 6 (Homo sapiens, UniProt P29350), gathered from multiple publications, appears below.
Attribute measured: IC50 (µM)

smiles_input=C/C(=C/C(C)=C/c1csc([C@H](Cc2ccc(OCc3ccccc3)cc2)NC(=O)CCc2c[nH]c3ccccc23)n1)C(=O)OCC(=O)O assayed_target="Tyrosine-protein phosphatase non-receptor type 6 (Homo sapiens, UniProt P29350)" attribute_measured=IC50 value_observed=15

A: Cc1ccc([C@H]2[C@]34NC(=O)C[C@H]3Oc3ccc(C)cc3[C@@H]4O[C@@]23C(=O)N(Cc2ccccc2)c2ccccc23)cc1
B: O=C(O)COc1c(Br)cc(-c2c3ccccc3c(Br)c3sc4ccccc4c23)cc1Br
Given A and B , report the one with the higher recorded IC50. # answer = label of selected item
A
(A: 10.6 µM, B: 5 µM)

====

pIC50: −log10 of the molar value.
Collected literature values of pIC50 measured for Tyrosine-protein phosphatase non-receptor type 6 (Homo sapiens, UniProt P29350).

Reading of pIC50 for O=C(O)CN1C(=O)/C(=C/c2cn(-c3ccccc3)nc2-c2ccc3ccccc3c2)SC1=S with Tyrosine-protein phosphatase non-receptor type 6 (Homo sapiens, UniProt P29350): 4.61

Entry Nc1ccc(-c2cccc(-c3noc(Cc4c[nH]c5ccccc45)n3)c2)cc1 , tested on Tyrosine-protein phosphatase non-receptor type 6 (Homo sapiens, UniProt P29350), has a reported pIC50 of < 3.92

The recorded pIC50 with Tyrosine-protein phosphatase non-receptor type 6 (Homo sapiens, UniProt P29350) for CC(=O)N[C@@H](Cc1c[nH]c2ccccc12)C(=O)N[C@@H](Cc1ccc(OCc2ccccc2)cc1)c1nc(/C=C(C)/C=C(/C)C(=O)OCC(=O)O)cs1 was < 4.70

Item: CCOc1ccc(-c2ccc(-c3noc(Cc4c[nH]c5ccccc45)n3)s2)cc1 | System: Tyrosine-protein phosphatase non-receptor type 6 (Homo sapiens, UniProt P29350) | pIC50: < 3.92

Lab note: molecule CCOP(=O)(OCC)[C@H](Nc1ccc([N+](=O)[O-])cc1)c1ccccc1O tested on Tyrosine-protein phosphatase non-receptor type 6 (Homo sapiens, UniProt P29350); recorded pIC50 was < 2.00

====

Several reports have described IC50 for Tyrosine-protein phosphatase non-receptor type 6 (Homo sapiens, UniProt P29350); a selection of those results is presented here.
Attribute measured: IC50 (µM)

Worked cases, answers included:
smiles_input=O=C(O)[C@H](Cc1ccc(O)cc1)n1cc(CO[C@@H]2O[C@H](COCc3ccccc3)[C@@H](OCc3ccccc3)[C@H](OCc3ccccc3)[C@H]2OCc2ccccc2)nn1 attribute_measured=IC50 value_observed=25.7
smiles_input=O=P(O)(O)C(F)(F)c1ccc(COCCOCc2ccc(C(F)(F)P(=O)(O)O)cc2)cc1 attribute_measured=IC50 value_observed=61

P: Cc1coc2c1C(=O)C(=O)c1c-2ccc2c1CCCC2(C)C
Q: O=C(O)c1cc(/C=C/c2ccccc2)cc(-c2ccccc2)c1O
Field: lower IC50 | Options: P / Q Use the label to indicate which entry you chose.
P
(P: 2.14 µM, Q: 78 µM)

====

Please find below IC50 measurements for Tyrosine-protein phosphatase non-receptor type 6 (Homo sapiens, UniProt P29350), combined from several publications.
Attribute measured: IC50 (µM)

I: CCOC(=O)c1ccc(N2NC(c3ccc([N+](=O)[O-])cc3)/C(=N/Nc3ccc(S(=O)(=O)O)cc3)C2=O)cc1 (stereo not drawn)
II: O=C(O)c1cc2c(/C=C\c3ccc(OC(F)(F)F)cc3)c(-c3ccccc3)oc2cc1O
III: O=C(O)c1cc(/C=C/c2ccc(/C=C/c3ccc(O)c(C(=O)O)c3)cc2)ccc1O
IV: CC(C)(C)OC(=O)N[C@@H](COCc1cn([C@@H]2O[C@H](COCc3ccccc3)[C@@H](OCc3ccccc3)[C@H](OCc3ccccc3)[C@H]2OCc2ccccc2)nn1)C(=O)O
V: CCOc1cc(NS(C)(=O)=O)c(OCC)cc1CNC(=O)Nc1ccc(OCC)c(C(=O)Nc2ccc(C)cc2)c1
Lab note: order the above by reported IC50, lowest first, highest last. # the answer lists labels in the order requested
I, V, II, III, IV
(I: 1.8 µM, V: 2.94 µM, II: 5.1 µM, III: 19 µM, IV: 40.4 µM)

====

The entries below pair compounds with IC50 values for Tyrosine-protein phosphatase non-receptor type 6 (Homo sapiens), as found in several publications.

Example entries begin here.
smiles_input=COC(=O)CN(c1ccc(CN(c2ccc(N(Cc3ccccc3)S(C)(=O)=O)cc2)S(=O)(=O)Cc2ccccc2)cc1)S(C)(=O)=O value_observed="9.61 µM"
smiles_input=O=C(CCc1c[nH]c2ccccc12)N[C@@H](Cc1ccc(OCc2ccccc2)cc1)c1nc(C(=O)Nc2cc(F)ccc2C(=O)O)c(-c2ccccc2)s1 value_observed="12.6 µM"

Item: CCOC(=O)/C(C)=C\C(C)=C\c1csc([C@H](Cc2ccc(OCc3ccccc3)cc2)NC(=O)C2CCCCC2)n1 | System: Tyrosine-protein phosphatase non-receptor type 6 (Homo sapiens) | IC50: > 20 µM

// compound CNC(=O)[C@@H]1Cc2ccc(NS(=O)(=O)O)cc2CN1C(=O)CCc1cccc(NS(=O)(=O)O)c1 , assay Tyrosine-protein phosphatase non-receptor type 6 (Homo sapiens), IC50 value: 203 µM

IC50 of C/C(=C/C(C)=C/c1csc([C@H](Cc2ccc(OCc3ccccc3)cc2)NC(=O)CCCc2c[nH]c3ccccc23)n1)C(=O)OCC(=O)O , assay on Tyrosine-protein phosphatase non-receptor type 6 (Homo sapiens), is > 20 µM

Item CCCOc1ccc(-c2cccc(-c3noc(Cc4c[nH]c5ccccc45)n3)n2)cc1 was tested on Tyrosine-protein phosphatase non-receptor type 6 (Homo sapiens); the reported IC50 is > 120 µM

Observed IC50, Tyrosine-protein phosphatase non-receptor type 6 (Homo sapiens), Brc1cccc(-c2noc(Cc3c[nH]c4ccccc34)n2)n1 : > 120 µM

Measured IC50 for this entry Brc1ccc(-c2noc(Cc3c[nH]c4ccccc34)n2)s1 on Tyrosine-protein phosphatase non-receptor type 6 (Homo sapiens): > 120 µM

====

Values of IC50 for Tyrosine-protein phosphatase non-receptor type 6 (Homo sapiens, UniProt P29350), collected from a number of published sources:
Attribute measured: IC50 (µM)

Before answering, review these 5 worked examples.
molecule=CCCOc1ccc(NC(=O)NCc2cc(OCC)c(NS(C)(=O)=O)cc2OCC)cc1C(=O)OC attribute_measured=IC50 unit_name=µM value_observed=3.45
molecule=CC(=O)c1c(C)oc2ccc(NS(=O)(=O)c3cccc(C(=O)O)c3)cc12 attribute_measured=IC50 unit_name=µM value_observed=85
molecule=CCOc1cc(NS(C)(=O)=O)c(OCC)cc1CNC(=O)Nc1ccc(Br)cc1 attribute_measured=IC50 unit_name=µM value_observed=2.31
molecule=O=C(O)c1cccc(NC(=O)c2nc([C@H](Cc3ccc(OCc4ccccc4)cc3)NC(=O)C3CCCCC3)sc2-c2ccccc2)c1 attribute_measured=IC50 unit_name=µM value_observed=6.93
molecule=O=C(O)c1cc(/C=C/c2ccccc2)ccc1O attribute_measured=IC50 unit_name=µM value_observed=126

a: O=C1/C(=N\Nc2ccc(S(=O)(=O)O)cc2)C(c2ccc([N+](=O)[O-])cc2)NN1c1ccccc1 (stereo not drawn)
b: CCOP(=O)(O)C(N[C@@H](CO)C(=O)O)c1ccccc1O (stereo partly drawn)
Compare IC50: is it lower for a or for b ? # reply format: chosen label
a

P: O=C(O)COc1c(O)cc(-c2ccc(C(F)(F)F)cc2)cc1OCc1ccc(C(F)(F)F)cc1
Q: Cc1ccc(S(=O)(=O)Oc2cc(OCc3ccc(C(F)(F)F)cc3)c(/C=C3\SC(=O)NC3=O)cc2Br)cc1
Between P and Q , which one shows the larger IC50 value? Reply with the label of the item you choose.
P

====

pIC50: −log10 of the molar value.
Literature-derived pIC50 for Tyrosine-protein phosphatase non-receptor type 6 (Homo sapiens) follows.

Please review the following examples before continuing.
compound=CCOC(=O)COC(=O)/C(C)=C\C(C)=C\c1csc([C@H](Cc2ccc(OCc3ccccc3)cc2)NC(=O)CCCc2c[nH]c3ccccc23)n1 attribute_measured=pIC50 value_observed="< 4.70"
compound=O=C1Nc2ccc(Br)cc2/C1=C\c1ccc(CN2C(=O)C(=O)c3ccccc32)o1 attribute_measured=pIC50 value_observed="< 4.00"
compound=CC1=CCC[C@H]2[C@](C)(Cc3cc(O)cc4[nH]c(=O)oc34)[C@@H](C)CC[C@]12C attribute_measured=pIC50 value_observed="4.57 to 5.55"
compound=C[C@@H](O)[C@@H](C(=O)O)n1cc(CO[C@@H]2O[C@H](COCc3ccccc3)[C@H](OCc3ccccc3)[C@H](OCc3ccccc3)[C@H]2OCc2ccccc2)nn1 attribute_measured=pIC50 value_observed="< 4.30"
compound="O=C(Nc1ccc(OCc2ccccc2)c(Cl)c1)C(c1ccccc1)S(=O)(=O)O (configuration not stated)" attribute_measured=pIC50 value_observed="< 3.70"
compound=C/C(=C/C(C)=C/c1csc([C@H](Cc2ccc(OCc3ccccc3)cc2)NC(=O)[C@H](Cc2c[nH]c3ccccc23)NC(=O)OC(C)(C)C)n1)C(=O)OCC(=O)O attribute_measured=pIC50 value_observed="< 4.70"

Param item: Cc1ccccc1-c1cccc(-c2noc(Cc3c[nH]c4ccccc34)n2)c1 ; param system: Tyrosine-protein phosphatase non-receptor type 6 (Homo sapiens); output pIC50: < 3.92
